Cited source: paper PMC12668310

Biological target: OTUB2 (Homo sapiens, UniProt Q96DC9)
Sequence (Q96DC9 1-234): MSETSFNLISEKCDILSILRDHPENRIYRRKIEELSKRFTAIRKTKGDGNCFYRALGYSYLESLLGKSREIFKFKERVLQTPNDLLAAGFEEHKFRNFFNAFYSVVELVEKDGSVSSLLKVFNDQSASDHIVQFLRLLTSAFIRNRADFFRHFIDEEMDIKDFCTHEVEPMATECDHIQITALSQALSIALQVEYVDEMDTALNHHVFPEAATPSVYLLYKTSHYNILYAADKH
Assay: High-throughput screening, Ub-RhoMP, single dose 1.25 µM
Assay type: biochemical
Design: (1-234); His6 (cleaved yes); made in house
Details: individual amine building block (plate NCN-5); read-out: BB %inhibition OTUB2
metric_name: inhibition at 1.25 µM (%)
Only the number, expressed in %, is required.

Query: Given the compound N#CN1CCC[C@@H](N)C1 [BB4] , what is its reported inhibition at 1.25 µM?
Result: 2.7

Query: Given the compound N#CN1CCC2(CCNC2)C1 (stereo not shown) [BB14] , what is its reported inhibition at 1.25 µM?
Result: 6.4

Query: Given the compound N#CN1CC[C@H](C(=O)Nc2nc3c(s2)CNCC3)C1 [BB10] , what is its reported inhibition at 1.25 µM?
Result: -5.1

Query: Given the compound N#CN1C[C@H](N)[C@@H](O)C1 [BB13] , what is its reported inhibition at 1.25 µM?
Result: 5.6

Query: Given the compound N#CN1C[C@@H]2C[C@H]1CN2 [BB12] , what is its reported inhibition at 1.25 µM?
Result: -6

Query: Given the compound N#CN1C[C@H]2C[C@@H](N)C[C@H]2C1 [BB6] , what is its reported inhibition at 1.25 µM?
Result: -1.5

Query: Given the compound N#CN1C[C@@H](F)[C@@H](N)C1 [BB15] , what is its reported inhibition at 1.25 µM?
Result: -0.269

Query: Given the compound N#CN1CCC(N)CC1 [BB2] , what is its reported inhibition at 1.25 µM?
Result: 0.9

Query: Given the compound N#CN1CC(N)C1 [BB5] , what is its reported inhibition at 1.25 µM?
Result: -1.4

Query: Given the compound N#CN1C[C@H]2C[C@H](N)C[C@H]2C1 [BB7] , what is its reported inhibition at 1.25 µM?
Result: -3.8

Query: Given the compound N#CN1CCC(n2cc(N)cn2)CC1 [BB16] , what is its reported inhibition at 1.25 µM?
Result: 0.0345

Query: Given the compound N#CN1CC[C@H](CN)C1 [BB11] , what is its reported inhibition at 1.25 µM?
Result: -6.8

Query: Given the compound N#CN1CC[C@@H](NC(=O)c2ccc(CN)cc2)C1 [BB9] , what is its reported inhibition at 1.25 µM?
Result: -2

Query: Given the compound N#CN1CC[C@@H](N)C1 [BB1] , what is its reported inhibition at 1.25 µM?
Result: 3.3

Query: Given the compound N#CN1CC[C@H](N)C1 [BB3] , what is its reported inhibition at 1.25 µM?
Result: 0.556

Query: Given the compound N#CN1CCC[C@H](N)C1 [BB8] , what is its reported inhibition at 1.25 µM?
Result: -1.3
